Hi there, I'd appreciate the recorded apparent KD of MS2 coat protein for every entry that follows.
System: MS2 coat protein
protocol description: apparent KD of MS2 coat protein; designed switch direction (-1 OFF switch, 1 ON switch): 1; higher = weaker reporter binding
conditions: input ligand: FMN 200 uM
Kindly provide the numeric value in nM only, without the unit symbol.

[in] Provide one value: measured apparent KD of MS2 coat protein of AGUCCAGCCUGAGCUGGACAAAAGCAUGUACAUGAGGAUCACCCAUGUUCAUGUGCAAGCUUUUUGCUCGUCUUAAA [Zipper 52 - 4] (Eterna round: R96, puzzle: Sensor for hsa-mir-208a)
[out] 71.5

[in] Provide one value: measured apparent KD of MS2 coat protein of GGAGCCGGCCUAGGAUAUUUCAUAUAAAAACAUGAGGAUCACCCAUGUAGGCCAGAAGGCCUUGGGAAGAAGGAGGUCGGCUCC [Loop Effect - U25] (Eterna round: R96, puzzle: Same State NG 2)
[out] 12.4

[in] Provide one value: measured apparent KD of MS2 coat protein of ACAUGAGGAUCACCCAUGUAUAGAAUUGAAUGUUAAGAUACGUAGGAUAUCGAGAUUAGUAUGAUCGAGAAGGACGAUUAGAUA [JR_SSNG3_Sub064] (Eterna round: R96, puzzle: Same State NG 3)
[out] 12.6

====

Test system: MS2 coat protein
protocol description: apparent KD of MS2 coat protein; higher = weaker reporter binding
conditions: Eterna round: R107; input ligand: theophylline 20 uM
Label label 1 for high-side apparent KD of MS2 coat protein (at or above 40 nM) and label 0 for low-side apparent KD of MS2 coat protein (below it).

[in] In plain terms: is recorded apparent KD of MS2 coat protein at least 40 nM for AGAGUCUAGUCGGCCGCCACUCAUGUCCUAAGGACAUGAGGAUCACCCAUGUACCAAAGGUACAUGAGGACCGGGACUGGACUCA [Omei Tryp B SS C v1] ?
[out] label 1

[in] In plain terms: is recorded apparent KD of MS2 coat protein at least 40 nM for GUCCUCAUGACGGCCGCCACUACACAUGAGGAUCACCCAUGUAAUGAUCCCUUAAAUGAUAAUAGUAGGACCGGGUCACUGUAAG [Same State Typptophan B GF12] ?
[out] label 1

[in] In plain terms: is recorded apparent KD of MS2 coat protein at least 40 nM for CCUAUGCAGUCGGCCGCCACUGAAAUAAAUUAUAUUACCUCAGAAACAUGAGGAUCACCCAUGUACAGGACCGGGACUGUAUAGG [Ex Tryptophan B 15] ?
[out] label 1

[in] In plain terms: is recorded apparent KD of MS2 coat protein at least 40 nM for UUAUGCAGGUCGGCCGCCACUACACACAUGAGGAUCACCCAUGUAGUUACUGGGUGAAGUGGCAGUAGGACCGGGACCUGCAUAU [Brourdmod05] ?
[out] label 1

[in] In plain terms: is recorded apparent KD of MS2 coat protein at least 40 nM for GUAUGGAAACAUACUUGGGUAUCAUGAGAUACCAGUACAGAAAUGUACCCUUGGCAGCUCAAGCAUACAUGAGGAUCACCCAUGU [Ex Theophylline A 8] ?
[out] label 0

[in] In plain terms: is recorded apparent KD of MS2 coat protein at least 40 nM for GAGCUGAUGUAGAGCGAAUAUACGAGAGAUACCAGUACAGAAAUGUACCCUUGGCAGCUCAACUUUACAUGAGGAUCACCCAUGU [Ex Theophylline A 22] ?
[out] label 0

====

Hi there, I'd appreciate the recorded apparent KD of K4 kissing-loop reporter for every entry that follows.
System: K4 kissing-loop RNA reporter;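 further: bound reporter read as fluorescence of individual clusters on recovered sequencing chips by microscopy, with normalized cluster intensities fitted with a binding model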
protocol description: apparent KD of K4 kissing-loop reporter; higher = weaker reporter binding
conditions: Eterna round: R107; input ligand: none
Kindly provide the numeric value in nM only, without the unit symbol.

[in] Look up K4 kissing-loop RNA reporter data: apparent KD of K4 kissing-loop reporter of AAAUAUUCGAGUGAUGUUCGUUAAAUUACAGAGGAUAUGCUUAAAAGCAGAAGGCUGUAUUUCUAUUUGUUAUGUAAUUUUAAAA [JR_ExcFMNA_Sub004] , then report it.
[out] 157

[in] Look up K4 kissing-loop RNA reporter data: apparent KD of K4 kissing-loop reporter of ACGUCUUGUAAACUCGUGGUUUCGAUCGAUACCAGUAGCGAGAGUUACCCUUGGCAGCGACAUGAGUGAUGUUCAUGUACGAAGA [KL-XTheoA3] , then report it.
[out] 92.9

[in] Look up K4 kissing-loop RNA reporter data: apparent KD of K4 kissing-loop reporter of GGCAUAGUCUCAACGUGUGGUUGGGUUGGGAAGGAUAUUUGAUCGAAAAGAAGGUCCCGCAUUGAGUGAUGUUCAAGGGCUCCAA [theeternabot_exclusion_KL_FMN_A_26] , then report it.
[out] 262

[in] Look up K4 kissing-loop RNA reporter data: apparent KD of K4 kissing-loop reporter of GCCGUAGAUUGAAGGAGCGGGAGAGGGAAAGUGAUGUUUUCUCUAUGACGGCGUCCUCGAUCCCAGGUAGGUCGCAAUCUACGGC , then report it.
[out] 99.7

[in] Look up K4 kissing-loop RNA reporter data: apparent KD of K4 kissing-loop reporter of AAGUGAUGUUGUAGUGAUGUUGUGAUGUUGCAGGAUAUAUAGUGAUGUAGAAGGGUAAGUACUGAUGUUGUUUGUGAGUGAUGUU [zrrszrmullin] , then report it.
[out] 78.6

[in] Look up K4 kissing-loop RNA reporter data: apparent KD of K4 kissing-loop reporter of UCGAAAUGCGACUCCUAGUUACACCGGGAAGGAGCGUGGAUAACCGCAGGUAGGUCGCCCGGAAGCCGGACCAGUGAUGUUGGUC [Exclusion Arginine A Gf 28] , then report it.
[out] 203

[in] Look up K4 kissing-loop RNA reporter data: apparent KD of K4 kissing-loop reporter of AUUUAUUCGAGUGAUGUUCGUGAUUUUUCAGAGGAUAUGCGUAAUAGCAGAAGGCUGUAUUUAUAUAUAUUUUGAUUUUUUUAAA [JR_Nu3_ExcFMNA_Sub024] , then report it.
[out] 64.6

[in] Look up K4 kissing-loop RNA reporter data: apparent KD of K4 kissing-loop reporter of CGGACGGUAUCGGCCGCCACUCUGAAGACAGUGAUGUUGUCCGUGCAGUAUUUAGGAAAGCCGCGGAGGACCGGGAUGCGUCACU [theeternabot_sameState_KL_Trp_B_48] , then report it.
[out] 232

[in] Look up K4 kissing-loop RNA reporter data: apparent KD of K4 kissing-loop reporter of AGAACUGUCUGGGAUACCAGCCGAGGAGUGAUGUUCCGGCUCGACGAAACGUCGAGCCACGGCCCUUGGCAGCUCAGACAGUUCA [#21 K4 Theophylline B Same State] , then report it.
[out] 1050

[in] Look up K4 kissing-loop RNA reporter data: apparent KD of K4 kissing-loop reporter of ACGUGCACUAGUGAUGUUAGAAAAUACGAAGGAGCGGGCGAAAGCCCAGGUAGGUCGCGUAAUAGCACGAGCCACGAAAGUGGCA , then report it.
[out] 325

[in] Look up K4 kissing-loop RNA reporter data: apparent KD of K4 kissing-loop reporter of AAAGCAUUGAGAAGGAGCGUGACGUGGAGUGAUGUUCCAUUGUAGUAAUAAUUACUACUAUCACAGGUAGGUCGCUCAUUGCUAA [JR_Nu_SSArginiB_Sub024] , then report it.
[out] 181

[in] Look up K4 kissing-loop RNA reporter data: apparent KD of K4 kissing-loop reporter of AAGACUGCAGGAAGGAGCGGCGGACGGAGUGAUGUUCCGGCUAGUGAUGUUAGCAAACACCGCCAGGUAGGUCGCCUGUUGCUCU [Same State Arginine B GF7] , then report it.
[out] 126

====

Tested on: MS2 coat protein
protocol description: apparent KD of MS2 coat protein; designed switch direction (-1 OFF switch, 1 ON switch): -1; higher = weaker reporter binding
conditions: input ligand: FMN 200 uM
readout kind: apparent KD of MS2 coat protein (nM)
Kindly provide the numeric value in nM only, without the unit symbol.

[in] Provide one value: measured apparent KD of MS2 coat protein of GCGUGAAGGCAGGAUAUAAGAAAAGAAAGAAAAUUAGAAGGGCCGACAUGAGGAUCACCCAUGUGGGCAUGAUC [Xeorusza] (Eterna round: R97, puzzle: Exclusion 6)
[out] 33.8

[in] Provide one value: measured apparent KD of MS2 coat protein of AUCAUGUAAGGAUAUCGUGCAAGUUUCAAAAGAGGCUUGUGCGAGAAGGUACAUGAGGAUCACCCAUGUAGGUU [Omei Ex4 B10] (Eterna round: R97, puzzle: Exclusion 4)
[out] 57.8

[in] Provide one value: measured apparent KD of MS2 coat protein of UAUGGUUAAGUCAGGAUAUGCUCAUAGAAGUCUAUGCAGAAGGGACAUGAGGAUCACCCAUGUAUGGUCGUGUU [Ex4 #65] (Eterna round: R97, puzzle: Brourd's mod of Exclusion 4)
[out] 142

[in] Provide one value: measured apparent KD of MS2 coat protein of UUUUGGCAUGUAGGAUAUGGGUCCGAUUGGGAUUUAGAAGGACAUGAGGAUCACCCAUGUGCCCUUACUUGGUCUUUUUUUUUU [EXclNG1-LROPPY19] (Eterna round: R96, puzzle: Exclusion NG 1)
[out] 298

[in] Provide one value: measured apparent KD of MS2 coat protein of GGCACCGUAGGAUAUUGUGGUGCAGACAUGAGGAUCACCCAUGUUGAUCCGGGACUGCAGCGAGAAGGACGGGAAA [Eternabot (Original) Solution 2] (Eterna round: R97, puzzle: Exclusion 5)
[out] 284
